The measured values listed here are drawn from patent US20170298113A1.

Target Desc: human somatostatin receptor subtype SSTR1 (human) (UniProt P30872)
Sequence (P30872 whole entry): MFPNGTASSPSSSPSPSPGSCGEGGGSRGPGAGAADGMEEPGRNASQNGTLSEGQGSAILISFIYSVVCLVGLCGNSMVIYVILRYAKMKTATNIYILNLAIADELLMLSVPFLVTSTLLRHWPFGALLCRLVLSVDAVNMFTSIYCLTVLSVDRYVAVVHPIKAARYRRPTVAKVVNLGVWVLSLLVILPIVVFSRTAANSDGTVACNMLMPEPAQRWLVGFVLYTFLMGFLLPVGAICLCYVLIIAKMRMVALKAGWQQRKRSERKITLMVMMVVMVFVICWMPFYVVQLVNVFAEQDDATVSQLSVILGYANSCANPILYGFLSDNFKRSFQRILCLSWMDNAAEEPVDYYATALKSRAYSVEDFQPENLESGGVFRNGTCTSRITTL
Experiment Description: FACS, transfected HEK-293 cells; row normalised to highest
*1 amine or outer side, *2 acyl side, *3 side chain or, on linkers, in order; H or OH if unused. Bridges are numbered along the chain shown (N, C = ends). Primed or numbered codes have the meaning given here. [ ]: non-standard residue; d: D form. N(2-mercaptoethyl)Gly = O=C(CN(CCS[*:3])[*:1])[*:2]; FITC′ = fluorescein isothiocyanate; Orn = NCCC[C@H](N)C(=O)O; GABA = NCCCC(=O)O
Please respond with reported Adjusted binding affinity for every item in the list.
Answers are plain numbers.

Solved cases below.
Binder	Adjusted binding affinity
{FITC′-GABA}-[dF]CY[dW][Orn]TF[N(2-mercaptoethyl)Gly]-NH2 (disulfide 2-8) [Compound 7]	0
{FITC′-GABA}-[dF]CFW[dW]RTF[N(2-mercaptoethyl)Gly]-NH2 (disulfide 2-9) [Compound 15]	0.3
XCFWXXTFX (FITC-GABA-DPhe-Cys*-Phe-Trp-DTrp-Orn-Thr-Phe-GlyS2*-NH2 (* = S-S bond; GlyS2 = N-thioethyl glycine; Orn = ornithine; C-terminal amide)) [Compound 3]	0.23

Now take the following binder into account.
The binder listed as XCFWXKTFX (FITC-GABA-DPhe-Cys*-Phe-Trp-DTrp-Lys-Thr-Phe-GlyS2*-NH2 (* = S-S bond; GlyS2 = N-thioethyl glycine; FITC-GABA on the N-terminal amine; C-terminal amide)) [Compound 1] shows Adjusted binding affinity equal to 0.11
